# studySystem: UniProt P47871
# Sequence (P47871 whole entry): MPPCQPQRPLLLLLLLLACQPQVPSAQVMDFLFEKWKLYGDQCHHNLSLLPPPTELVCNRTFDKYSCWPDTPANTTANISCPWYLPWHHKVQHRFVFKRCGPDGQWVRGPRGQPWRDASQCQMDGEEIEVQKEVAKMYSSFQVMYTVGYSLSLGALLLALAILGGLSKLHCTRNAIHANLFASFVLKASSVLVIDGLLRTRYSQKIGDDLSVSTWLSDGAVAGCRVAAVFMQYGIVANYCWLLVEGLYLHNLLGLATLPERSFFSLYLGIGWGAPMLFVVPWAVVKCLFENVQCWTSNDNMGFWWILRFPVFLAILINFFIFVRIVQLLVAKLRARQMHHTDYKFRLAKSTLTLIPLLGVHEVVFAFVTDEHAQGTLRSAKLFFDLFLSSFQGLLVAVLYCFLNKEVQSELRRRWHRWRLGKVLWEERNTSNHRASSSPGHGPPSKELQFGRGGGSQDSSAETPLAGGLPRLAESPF
# experimentDescription: Displacement of [125I]glucagon from human glucagon receptor expressed in CHO cell membranes
readoutName: IC50 (nM)
API: value field is a number in nM; no unit string.

Exercise: Entry COc1cncc(-c2nn(C(C)c3ccc(C(=O)NCCC(=O)O)cc3)c3cc(-c4ccc(OC(F)(F)F)cc4)ccc23)c1 (stereo not given) has what IC50?
Key: 50

Exercise: Another compound: CCC(c1ccc(C(=O)NCCC(=O)O)cc1)n1nc(-c2cc(C(F)(F)F)ccc2OC)c2ccc(-c3ccc(C)cc3)cc21 (stereo not given)
Key: 4

Exercise: Another compound: COc1ncccc1-c1nn(C(C)c2ccc(C(=O)NCCC(=O)O)cc2)c2cc(-c3ccc(OC(F)(F)F)cc3)ccc12 (stereo not given)
Key: 72

Exercise: Another compound: CC(c1ccc(C(=O)NCCC(=O)O)cc1)n1nc(-c2ccc(C#N)cc2)c2ccc(-c3ccc(OC(F)(F)F)cc3)cc21 (stereo not given)
Key: 15

Exercise: Another compound: CC(c1ccc(C(=O)NCCC(=O)O)cc1)n1nc(-c2cc(Cl)cc(C(F)(F)F)c2)c2ccc(-c3ccc(OC(F)(F)F)cc3)cc21 (stereo not given)
Key: 3

---
Exercise: Entry CCCC(c1ccc(C(=O)NCCC(=O)O)cc1)n1nc(-c2cc(C(F)(F)F)ccc2OC)c2cccc(-c3ccc(OC)cc3)c21 (stereo not given) has what IC50?
Key: 1700

Exercise: Another compound: CCCCC(c1ccc(C(=O)NCCC(=O)O)cc1)n1nc(-c2cc(C(F)(F)F)ccc2OC)c2ccc(-c3ccc(C)s3)cc21 (stereo not given)
Key: 4

Exercise: Another compound: CCCC(c1ccc(C(=O)NCCC(=O)O)cc1)n1nc(-c2cc(C(F)(F)F)ccc2OC)c2ccc(-c3ccc(C)cc3)cc21 (stereo not given)
Key: 2

The reported measurements were obtained from ChEMBL document CHEMBL3616402.
